# credit: patent US12448394B2

Property: pIC50; scope: individual compounds
- System: A375 melanoma cell with BRAF V600E mutation
- PROCEDURE TEXT: A375 cell proliferation assay (counter screen)
- Type: cell-based, human
- MEASUREMENT CONTEXT: Homo sapiens, A-375, A375 cells, 72 hours treatment, CellTiter96, read-out: anti-proliferation activity A375 BRAF V600E, IC50 ranking
pIC50: −log10 of the molar value.
TEST READOUT: pIC50

INSERT INTO assay_data (compound, target_of_assay, result) VALUES
  ('Cn1ncc2ccc(-c3n[nH]c4c3Cc3sc(-c5ccc(CN6CCCOCC6)cc5)cc3-4)cc21', 'A375 melanoma cell with BRAF V600E mutation', '5.00 to 6.00'),
  ('Cn1ncc2ccc(-c3n[nH]c4c3Cc3sc(-c5ccc(CN6CCCCC6=O)cc5)cc3-4)cc21', 'A375 melanoma cell with BRAF V600E mutation', '< 5.00'),
  ('Cn1cc(-c2cc3c(s2)Cc2c(-c4ccc5cnn(C)c5c4)n[nH]c2-3)cc1C(=O)N1CCOCC1', 'A375 melanoma cell with BRAF V600E mutation', '< 5.00'),
  ('Cn1ncc2ccc(-c3n[nH]c4c3Cc3sc(-c5cncc(C(=O)N6CCOCC6)c5)cc3-4)cc21', 'A375 melanoma cell with BRAF V600E mutation', '5.00 to 6.00'),
  ('Cn1ncc2ccc(-c3n[nH]c4c3Cc3sc(C5=CCN(C(=O)N6CCOCC6)CC5)cc3-4)cc21', 'A375 melanoma cell with BRAF V600E mutation', '< 5.00'),
  ('CCC(c1ccc(-c2cc3c(s2)Cc2c(-c4ccc5cnn(C)c5c4)n[nH]c2-3)cc1)N1CCOCC1 (stereo not drawn)', 'A375 melanoma cell with BRAF V600E mutation', '< 5.00'),
  ('Nc1ccc(-c2cc3c(s2)Cc2c(-c4ccc5[nH]ncc5c4)n[nH]c2-3)cn1', 'A375 melanoma cell with BRAF V600E mutation', '5.00 to 6.00'),
  ('Cn1ncc2ccc(-c3n[nH]c4c3Cc3sc(-c5ccc(CCN6CCOCC6)cc5)cc3-4)cc21', 'A375 melanoma cell with BRAF V600E mutation', '< 5.00'),
  ('CN(C)Cc1ccc(-c2cc3c(s2)Cc2c(-c4ccc5cnn(C)c5c4)n[nH]c2-3)cc1', 'A375 melanoma cell with BRAF V600E mutation', '5.00 to 6.00'),
  ('Cn1ncc2ccc(-c3n[nH]c4c3Cc3sc(-c5ccc(OCCN6CCOCC6)cc5)cc3-4)cc21', 'A375 melanoma cell with BRAF V600E mutation', '< 5.00'),
  ('C[C@@H]1CN(C(=O)c2ccc(-c3cc4c(s3)Cc3c(-c5ccc6cnn(C)c6c5)n[nH]c3-4)cc2)C[C@H](C)O1', 'A375 melanoma cell with BRAF V600E mutation', '< 5.00'),
  ('Cn1ncc2ccc(-c3n[nH]c4c3Cc3sc(-c5ccc(CN6CCOCC6)cc5)cc3-4)cc21', 'A375 melanoma cell with BRAF V600E mutation', '< 5.00'),
  ('CN1CCN(Cc2ccc(-c3cc4c(s3)Cc3c(-c5ccc6cnn(C)c6c5)n[nH]c3-4)cc2)CC1', 'A375 melanoma cell with BRAF V600E mutation', '< 5.00'),
  ('COc1cc(-c2cc3c(s2)Cc2c(-c4ccc5cnn(C)c5c4)n[nH]c2-3)ccc1C(=O)N1CCOCC1', 'A375 melanoma cell with BRAF V600E mutation', '< 5.00'),
  ('CN1CCN(C(=O)c2ccc(-c3cc4c(s3)Cc3c(-c5ccc6cnn(C)c6c5)n[nH]c3-4)cc2)CC1', 'A375 melanoma cell with BRAF V600E mutation', '< 5.00');
